Test system: HepG2
Experiment description: cell viability relative to DMSO; higher = less toxic
Conditions used: 72 h; 1000 nM
Quantity: cell viability (%)
Please respond with the number in % and leave the unit unwritten.

Incoming: Fill in the blank: the reported cell viability of O=C(/C=C/c1ccc(CN(CCO)CCc2c[nH]c3ccccc23)cc1)NO is ____.
Outgoing: -0.4

Incoming: Fill in the blank: the reported cell viability of CCC1(c2ccccc2)C(=O)NCNC1=O is ____.
Outgoing: 84.9

Incoming: Fill in the blank: the reported cell viability of O=S(=O)(O)c1ccc2[nH]c(-c3ccccc3)nc2c1 is ____.
Outgoing: 94.3

Incoming: Fill in the blank: the reported cell viability of CC/C=C\C/C=C\C/C=C\C/C=C\C/C=C\C/C=C\CCC(=O)OCC is ____.
Outgoing: 107

Incoming: Fill in the blank: the reported cell viability of CC(C)(C)c1ccc(-c2nc3ccccc3[nH]2)cc1 is ____.
Outgoing: 96.6

Incoming: Fill in the blank: the reported cell viability of O=C1CN(/N=C/c2ccc(-c3ccc([N+](=O)[O-])cc3)o2)C(=O)N1 is ____.
Outgoing: 101

Incoming: Fill in the blank: the reported cell viability of N#Cc1c(N(CC(=O)O)CC(=O)O)sc(C(=O)O)c1CC(=O)O [Strontium Ranelate] is ____.
Outgoing: 100

====

Known cell viability of a selection of compounds
Tested on: Caco-2
Experiment description: cell viability relative to DMSO; higher = less toxic
Conditions used: 72 h; 1 nM
Please respond with the number in % and leave the unit unwritten.

Cc1cccc(C)c1NC(=O)CN1CCCC1=O : 98.3
O=C(O)[C@H](CC(=O)N1C[C@H]2CCCC[C@H]2C1)Cc1ccccc1 [mitiglinide] : 99.9

Next:
Incoming: Fill in the blank: the reported cell viability of N=C(N)SCCc1ccc(OCc2ccc([N+](=O)[O-])cc2)cc1 is ____.
Outgoing: 88.7

====

Known cell viability of a selection of compounds
Test system: U2OS
Experiment description: cell viability relative to DMSO; higher = less toxic
Conditions used: 72 h; 10 nM
Please respond with the number in % and leave the unit unwritten.

Illustrative cases are given below, each with its answer.
CCC/N=C1\S/C(=C\c2ccc(OC[C@H](O)CO)c(Cl)c2)C(=O)N1c1ccccc1C : 100
C[C@]12CC[C@H]3[C@@H](CC[C@]4(O)C[C@@H](O)CC[C@]34C=O)[C@@]1(O)CC[C@@H]2C1=CC(=O)OC1 : 98.7
COc1ccc(CC2NCCc3c2[nH]c2ccc(C)cc32)c(Cl)c1OC (centres undefined) : 101

Incoming: Fill in the blank: the reported cell viability of N#Cc1ccc2[nH]cc(CCCCN3CCN(c4ccc5oc(C(N)=O)cc5c4)CC3)c2c1 is ____.
Outgoing: 108

Incoming: Fill in the blank: the reported cell viability of COc1cc(NC(=O)c2ccccn2)ccc1Cl is ____.
Outgoing: 95.3

====

Tested on: U2OS
Experiment description: drug sensitivity score (DSS) for viability; higher = more toxic; extreme values may be limits of the assay
Conditions used: 72 h
Quantity: drug sensitivity score
Reply briefly: the number, and no unit.

Illustrative cases are given below, each with its answer.
COc1cccc(C=NCCN=Cc2cccc(OC)c2[O-])c1[O-].[Cl-].[Mn+3] [EUK-134] : 0
Cc1cc(-c2nncc3c(C(C)(C)C)c(OCc4ncnn4C)nn23)no1 [MRK-016] : 0
C[C@H](NC(=O)c1sccc1OCc1ccc(Cl)cc1)c1ccccc1 : 0

Incoming: Any idea what drug sensitivity score came out for COc1ccc(-c2nc(N3CCOCC3)c3sc(CN(C)c4ncc(C(=O)NO)cn4)cc3n2)cn1 [CUDC-907] on U2OS?
Outgoing: 38.7

Each recorded value in this set is attributed to the supplement of paper PMC13380429.
